Test: Pharmacokinetics of ABS212 in Sprague-Dawley rats
Type: in vivo, rat
Conditions: Sprague-Dawley, rat, plasma; oral 50 mg/kg
Where a SMILES comes first, the peptide text is derived from it. [ ]: non-standard residue; d: D form. The star is where a group is joined. X2 = C[C@@H](CCC[N+](C)(C)C)C(=O)*; Tle = CC(C)(C)[C@H](N)C(=O)O
ASSAY ENDPOINT: AUC(0-inf) (ng·h/mL)
Numeric answer only, unit ng·h/mL assumed.

Entry CC(C)C[C@H](NC(=O)[C@@H](NC(=O)[C@H](Cc1ccc(O)cc1)NC(=O)[C@@H]1CCCN1C(=O)[C@H](CCCNC(=N)N)NC(=O)[C@@H](C)CCC[N+](C)(C)C)C(C)(C)C)C(=O)O [ABS-212.2HCL] (X2-RPY[Tle]L-OH) , AUC(0-inf) reported as 53.1

====

Test: Pharmacokinetics of ABS212 in Sprague-Dawley rats
Type: in vivo, rat
Settings: Sprague-Dawley, rat, plasma; IV bolus 5 mg/kg; read-out: half-life (T1/2) (converted)
Where a SMILES comes first, the peptide text is derived from it. [ ]: non-standard residue; d: D form. The star is where a group is joined. X2 = C[C@@H](CCC[N+](C)(C)C)C(=O)*; Tle = CC(C)(C)[C@H](N)C(=O)O
ASSAY ENDPOINT: half-life (min)
Numeric answer only, unit min assumed.

Entry CC(C)C[C@H](NC(=O)[C@@H](NC(=O)[C@H](Cc1ccc(O)cc1)NC(=O)[C@@H]1CCCN1C(=O)[C@H](CCCNC(=N)N)NC(=O)[C@@H](C)CCC[N+](C)(C)C)C(C)(C)C)C(=O)O [ABS-212.2HCL] (X2-RPY[Tle]L-OH) , half-life reported as 17.4

====

# Tmax (I.P.) of %MPE annotations
Target: NTR-2 (Rattus norvegicus, UniProt Q63384)
Sequence (Q63384 whole entry): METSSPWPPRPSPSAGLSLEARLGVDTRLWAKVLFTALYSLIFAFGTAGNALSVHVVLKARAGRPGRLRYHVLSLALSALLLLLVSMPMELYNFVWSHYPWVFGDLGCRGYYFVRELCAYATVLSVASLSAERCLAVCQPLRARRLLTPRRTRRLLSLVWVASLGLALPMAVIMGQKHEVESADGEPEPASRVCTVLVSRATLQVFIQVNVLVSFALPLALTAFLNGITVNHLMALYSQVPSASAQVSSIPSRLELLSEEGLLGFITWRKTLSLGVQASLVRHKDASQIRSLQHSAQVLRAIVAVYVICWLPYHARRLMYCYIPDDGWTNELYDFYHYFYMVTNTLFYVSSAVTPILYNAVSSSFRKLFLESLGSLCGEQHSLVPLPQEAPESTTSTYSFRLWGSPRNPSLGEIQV
Settings: IP at 10 mg/kg; 10 mg/kg
Please give only the number in your answer, with no unit.

Worked examples follow.
Orn-Arg-Pro-Tyr-t-Leu-Leu [ABS233] : 45
Orn-Arg-Pro-Tyr-t-Leu-Leu [ABS209] : 60

Now examine the next entry.
Entry Lys-Arg-Pro-Tyr-t-Leu-Leu [ABS229] , Tmax (I.P.) of %MPE reported as 60

====

Assay: Pharmacokinetics of ABS212 in Sprague-Dawley rats
Format: in vivo, rat
Conditions: Sprague-Dawley, rat, plasma; oral 50 mg/kg
Where a SMILES comes first, the peptide text is derived from it. [ ]: non-standard residue; d: D form. The star is where a group is joined. X2 = C[C@@H](CCC[N+](C)(C)C)C(=O)*; Tle = CC(C)(C)[C@H](N)C(=O)O
ASSAY ENDPOINT: Tmax (min)
Numeric answer only, unit min assumed.

Entry CC(C)C[C@H](NC(=O)[C@@H](NC(=O)[C@H](Cc1ccc(O)cc1)NC(=O)[C@@H]1CCCN1C(=O)[C@H](CCCNC(=N)N)NC(=O)[C@@H](C)CCC[N+](C)(C)C)C(C)(C)C)C(=O)O [ABS-212.2HCL] (X2-RPY[Tle]L-OH) , Tmax reported as 8.4

====

Target: NTR-1 (Homo sapiens)
Sequence (P30989 whole entry, species assumed): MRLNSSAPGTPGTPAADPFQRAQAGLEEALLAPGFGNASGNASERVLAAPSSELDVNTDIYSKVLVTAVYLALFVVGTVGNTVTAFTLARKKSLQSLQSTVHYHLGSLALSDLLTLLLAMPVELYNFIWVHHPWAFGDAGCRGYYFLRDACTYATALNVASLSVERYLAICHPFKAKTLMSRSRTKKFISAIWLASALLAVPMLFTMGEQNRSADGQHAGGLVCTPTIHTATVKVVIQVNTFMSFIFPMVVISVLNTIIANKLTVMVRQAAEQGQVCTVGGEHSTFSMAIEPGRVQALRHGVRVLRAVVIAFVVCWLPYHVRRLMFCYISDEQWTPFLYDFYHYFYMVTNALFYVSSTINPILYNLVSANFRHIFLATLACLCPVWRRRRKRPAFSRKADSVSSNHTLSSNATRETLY
Assay: Competitive NTR-1 binding versus radiolabeled NT[8-13]
Where a SMILES comes first, the peptide text is derived from it. [ ]: non-standard residue; d: D form. The star is where a group is joined. X4 = [N-]=[N+]=N[C@@H](CCCCCN)C(=O)*; Tle = CC(C)(C)[C@H](N)C(=O)O
# EC50 annotations
State the value, then name its unit.

Worked examples follow.
CCNC(=N)NCCC[C@H](N=[N+]=[N-])C(=O)N[C@@H](CCCNC(=N)N)C(=O)N1CCC[C@H]1C(=O)N[C@@H](Cc1ccc(O)cc1)C(=O)N[C@H](C(=O)N[C@@H](CC(C)C)C(=O)O)[C@@H](C)CC : 0.25 nM
CC(C)C[C@H](NC(=O)[C@@H](NC(=O)[C@H](Cc1ccc(O)cc1)NC(=O)[C@@H]1CCCN1C(=O)[C@H](CCCNC(=N)N)NC(=O)[C@H](CCCCCN)N=[N+]=[N-])C(C)(C)C)C(=O)O [ABS13] (X4-RPY[Tle]L-OH) : 5.7 nM
CC[C@H](C)[C@H](NC(=O)[C@H](Cc1ccc(O)cc1)NC(=O)[C@@H]1CCCN1C(=O)[C@H](CCCNC(=N)N)NC(=O)[C@H](CCCNC(=N)NC)N=[N+]=[N-])C(=O)N[C@@H](CC(C)C)C(=O)O : 0.3 nM

Note to self: EC50 of CC[C@H](C)[C@H](NC(=O)[C@H](Cc1ccc(O)cc1)NC(=O)[C@@H]1CCCN1C(=O)[C@H](CCCNC(=N)N)NC(=O)[C@H](CCCNC(=N)N)N=[N+]=[N-])C(=O)N[C@@H](CC(C)C)C(=O)O with NTR-1 (Homo sapiens) was 0.4 nM

====

Test: Pharmacokinetics of ABS212 in Sprague-Dawley rats
Type: in vivo, rat
Conditions: Sprague-Dawley, rat, plasma; oral 50 mg/kg; read-out: half-life (T1/2) (converted)
Where a SMILES comes first, the peptide text is derived from it. [ ]: non-standard residue; d: D form. The star is where a group is joined. X2 = C[C@@H](CCC[N+](C)(C)C)C(=O)*; Tle = CC(C)(C)[C@H](N)C(=O)O
ASSAY ENDPOINT: half-life
State the value, then name its unit.

Entry CC(C)C[C@H](NC(=O)[C@@H](NC(=O)[C@H](Cc1ccc(O)cc1)NC(=O)[C@@H]1CCCN1C(=O)[C@H](CCCNC(=N)N)NC(=O)[C@@H](C)CCC[N+](C)(C)C)C(C)(C)C)C(=O)O [ABS-212.2HCL] (X2-RPY[Tle]L-OH) , half-life reported as 1.42 h

// provenance: patent US20080234202A1
